# credit: PubChem BioAssay AID1745844

- System: rodent lifetime carcinogenesis bioassay, tumor incidence TD50
- ASSAY_SUMMARY: carcinogenic potency in animals, long-term in vivo studies, CPDB compilation (AID 1745844)
- CONDITION_DETAILS: rat; strain Fischer 344; males; in drinking water; site: liver; lesion: several types; types named in the paper; dosed 104 weeks; study length 104 weeks
Calls of active or inactive are those of the source. No rule for the calls is given here.
MEASURED_ENDPOINT: TD50

Task item: API: value(readout= TD50, system= rodent lifetime carcinogenesis bioassay, tumor incidence TD50, query= CN(C)N )
Reply: 155 mg/kg/day (inactive)

###

- Test system: rodent lifetime carcinogenesis bioassay, tumor incidence TD50
- ASSAY_SUMMARY: carcinogenic potency in animals, long-term in vivo studies, CPDB compilation (AID 1745844)
- CONDITION_DETAILS: rat; strain Colworth (Wistar derived); males; in drinking water; site: liver; lesion: intrahepatic bile duct tumor, benign; dosed 176 weeks; study length 176 weeks
MEASURED_ENDPOINT: TD50

Task item: # query: TD50 of entry CN(C)N=O
Reply: 0.313 mg/kg/day

###

- System: rodent lifetime carcinogenesis bioassay, tumor incidence TD50
- ASSAY_SUMMARY: carcinogenic potency in animals, long-term in vivo studies, CPDB compilation (AID 1745844)
- CONDITION_DETAILS: mouse; strain B6C3F1; males; in feed; site: urinary bladder; lesion: squamous-cell carcinoma + transitional-cell carcinoma; dosed 97 weeks; study length 97 weeks
MEASURED_ENDPOINT: TD50

Task item: # query: TD50 of entry COc1ccc(C)cc1N
Reply: 44.7 mg/kg/day

###

- Test system: rodent lifetime carcinogenesis bioassay, tumor incidence TD50
- ASSAY_SUMMARY: carcinogenic potency in animals, long-term in vivo studies, CPDB compilation (AID 1745844)
- CONDITION_DETAILS: rat; strain Charles River CD (Sprague-Dawley); males; i.p.; site: any site (literature study); lesion: benign tumor; dosed 26 weeks; study length 78 weeks
Here the recorded TD50 is given for each entry.
The reply should contain only the number, in mg/kg/day.

Task item: # query: TD50 of entry O[C@@H]([C@H](O)[C@H](O)CBr)[C@H](O)CBr
Reply: 16.6

Task item: # query: TD50 of entry CN(N=O)C(=O)N[C@@H](C=O)[C@@H](O)[C@H](O)[C@H](O)CO
Reply: 16.8

###

- Test system: rodent lifetime carcinogenesis bioassay, tumor incidence TD50
- ASSAY_SUMMARY: carcinogenic potency in animals, long-term in vivo studies, CPDB compilation (AID 1745844)
- CONDITION_DETAILS: mouse; strain CF-1; males; in feed; site: lung; lesion: adenoma; dosed 78 weeks; study length 78 weeks
Active and inactive are the calls of the source. How the calls were made is not given here.
MEASURED_ENDPOINT: TD50

Task item: # query: TD50 of entry CC(C)NCC(O)c1ccc2ccccc2c1 (stereo unspecified)
Reply: 931 mg/kg/day (inactive)

###

- System: rodent lifetime carcinogenesis bioassay, tumor incidence TD50
- ASSAY_SUMMARY: carcinogenic potency in animals, long-term in vivo studies, CPDB compilation (AID 1745844)
- CONDITION_DETAILS: rat; strain Wistar; males; in drinking water; site: liver; lesion: hepatoma; dosed 103 weeks; study length 104 weeks
MEASURED_ENDPOINT: TD50

Task item: # query: TD50 of entry C/C=C1/C[C@@H](C)[C@](O)(CO)C(=O)OCC2=CC[N+]3([O-])CC[C@@H](OC1=O)[C@@H]23 (stereo partly specified)
Reply: 0.499 mg/kg/day

###

- Tested on: rodent lifetime carcinogenesis bioassay, tumor incidence TD50
- ASSAY_SUMMARY: carcinogenic potency in animals, long-term in vivo studies, CPDB compilation (AID 1745844)
- CONDITION_DETAILS: rat; strain Fischer 344; males; in feed; site: liver; lesion: hepatocellular carcinoma; dosed 104 weeks; study length 104 weeks
Active and inactive are the calls of the source. The rule behind the calls is not given here.
MEASURED_ENDPOINT: TD50

Sample answers from the record:
INSERT INTO results (compound, measured_endpoint, result) VALUES
  ('Brc1cc(Br)c(-c2cc(Br)c(Br)cc2Br)cc1Br', 'TD50', '1.19 mg/kg/day'),
  ('ClC1(Cl)C2(Cl)C3(Cl)C4(Cl)C(Cl)(Cl)C5(Cl)C3(Cl)C1(Cl)C5(Cl)C24Cl (stereo unspecified)', 'TD50', '7.09 mg/kg/day'),
  ('CN(C)CCOC(C)(c1ccccc1)c1ccccn1 (stereo unspecified)', 'TD50', '3270 mg/kg/day'),
  ('ClC=CCCl', 'TD50', '1360 mg/kg/day'),
  ('Nc1c(Cl)c(Cl)nc(C(=O)O)c1Cl', 'TD50', '8710 mg/kg/day (inactive)');

Below: the item to evaluate.
Task item: API: value(readout= TD50, system= rodent lifetime carcinogenesis bioassay, tumor incidence TD50, query= CC(C)CCCCCCOC(=O)c1ccccc1C(=O)OCCCCCCC(C)C )
Reply: 2640 mg/kg/day

###

- Test system: rodent lifetime carcinogenesis bioassay, tumor incidence TD50
- ASSAY_SUMMARY: carcinogenic potency in animals, long-term in vivo studies, CPDB compilation (AID 1745844)
- CONDITION_DETAILS: rat; strain Fischer 344; females; in drinking water; site: clitoral gland; lesion: adenoma + adenoma, bilateral; dosed 91 weeks; study length 93 weeks
MEASURED_ENDPOINT: TD50 (mg/kg/day)
The reply should contain only the number, in mg/kg/day.

Task item: # query: TD50 of entry COc1cc(-c2ccc(N)c(OC)c2)ccc1N
Reply: 3.84

###

- Tested on: rodent lifetime carcinogenesis bioassay, tumor incidence TD50
- ASSAY_SUMMARY: carcinogenic potency in animals, long-term in vivo studies, CPDB compilation (AID 1745844)
- CONDITION_DETAILS: mouse; strain B6AKF1; females; oral dosing; site: any site (literature study); lesion: several types; types named in the paper; dosed 78 weeks; study length 78 weeks
MEASURED_ENDPOINT: TD50 (mg/kg/day)
The reply should contain only the number, in mg/kg/day.

Task item: # query: TD50 of entry NNCCO
Reply: 5.34

###

- System: rodent lifetime carcinogenesis bioassay, tumor incidence TD50
- ASSAY_SUMMARY: carcinogenic potency in animals, long-term in vivo studies, CPDB compilation (AID 1745844)
- CONDITION_DETAILS: rat; strain Fischer 344; males; in feed; site: any site (literature study); lesion: several types; types named in the paper; dosed 110 weeks; study length 111 weeks
MEASURED_ENDPOINT: TD50 (mg/kg/day)
The reply should contain only the number, in mg/kg/day.

Task item: API: value(readout= TD50, system= rodent lifetime carcinogenesis bioassay, tumor incidence TD50, query= Nc1ncc([N+](=O)[O-])s1 )
Reply: 32.3

###

- Test system: rodent lifetime carcinogenesis bioassay, tumor incidence TD50
- ASSAY_SUMMARY: carcinogenic potency in animals, long-term in vivo studies, CPDB compilation (AID 1745844)
- CONDITION_DETAILS: hamster; strain Syrian Golden; females; in drinking water; site: liver; lesion: hepatoma; dosed 102 weeks; study length 102 weeks
MEASURED_ENDPOINT: TD50 (mg/kg/day)
The reply should contain only the number, in mg/kg/day.

Task item: # query: TD50 of entry CN(N)C=O
Reply: 28.3

###

- Test system: rodent lifetime carcinogenesis bioassay, tumor incidence TD50
- ASSAY_SUMMARY: carcinogenic potency in animals, long-term in vivo studies, CPDB compilation (AID 1745844)
- CONDITION_DETAILS: rat; strain Fischer 344; males; in drinking water; site: thyroid gland; lesion: c-cell adenoma + c-cell adenoma, bilateral; dosed 97 weeks; study length 97 weeks
MEASURED_ENDPOINT: TD50 (mg/kg/day)
The reply should contain only the number, in mg/kg/day.

Task item: # query: TD50 of entry COc1cc(-c2ccc(N=Nc3c(S(=O)(=O)O)cc4cc(S(=O)(=O)O)cc(N)c4c3O)c(OC)c2)ccc1N=Nc1c(S(=O)(=O)O)cc2cc(S(=O)(=O)O)cc(N)c2c1O
Reply: 143

###

- Tested on: rodent lifetime carcinogenesis bioassay, tumor incidence TD50
- ASSAY_SUMMARY: carcinogenic potency in animals, long-term in vivo studies, CPDB compilation (AID 1745844)
- CONDITION_DETAILS: rat; strain Fischer 344; females; in feed; site: uterus; lesion: adenocarcinoma, NOS; dosed 78 weeks; study length 107 weeks
MEASURED_ENDPOINT: TD50

Task item: # query: TD50 of entry CCn1c2ccccc2c2cc(N)ccc21
Reply: 106 mg/kg/day

###

- System: rodent lifetime carcinogenesis bioassay, tumor incidence TD50
- ASSAY_SUMMARY: carcinogenic potency in animals, long-term in vivo studies, CPDB compilation (AID 1745844)
- CONDITION_DETAILS: mouse; strain B6C3F1; males; i.p.; site: liver; lesion: hepatocellular adenoma + hepatocellular carcinoma + neoplastic nodule; dosed 52 weeks; study length 85 weeks
MEASURED_ENDPOINT: TD50
Include the unit after the number when you answer.

Task item: # query: TD50 of entry CNNCc1ccc(C(=O)NC(C)C)cc1
Reply: 3.28 mg/kg/day
